test system: P. falciparum (NF54 or 3D7 strain); experiment: Assay for P. falciparum proliferation in infected human blood cells (SYBR Green); format: cell-based, Plasmodium falciparum; conditions: Plasmodium falciparum, Erythrocyte, 72 h, NF54 or 3D7 infected human erythrocytes, 72 hours; read-out: EC50 (nM), inhibitory efficacy in delaying P. falciparum proliferation in infected human blood cells
Output True for records whose EC50 is lower than 400 nM, False for records at or above 400 nM.

{"columns": ["molecular.string", "classification"],
 "data": [
  ["CC(C)Oc1ccc(-c2cnc3cnc(C(=O)N(C)c4ccc(C#N)cc4)cn23)cc1", "True"],
  ["CN(C(=O)c1cn2c(-c3ccc(C#N)cc3)cnc2cn1)c1ccc(C(F)(F)F)cc1", "False"],
  ["CN(C(=O)c1cn2c(-c3ccc(OC(F)F)cc3)cnc2cn1)c1ccc(F)c(F)c1", "True"],
  ["CN(C)c1ccc(-c2cnc3cnc(C(=O)N(C)c4ccc(S(C)(=O)=O)cc4)cn23)cc1", "False"],
  ["CN(C(=O)c1cn2c(-c3ccc(C(N)=O)nc3)cnc2cn1)c1ccc(C#N)cc1", "False"],
  ["CN(C(=O)c1cn2c(-c3ccc(C(F)(F)F)cc3)cnc2cn1)c1ccc(C(F)(F)F)cc1", "True"],
  ["CN(C(=O)c1cn2c(-c3ccc(C(F)(F)F)cc3)cnc2cn1)c1ccccc1Cl", "False"],
  ["CN(C(=O)N1CCC(C)(C)CC1)c1cn2c(-c3ccc(C(F)(F)F)cc3)cnc2cn1", "False"]
]}

---

system: P. falciparum (NF54 or 3D7 strain); assay: Assay for P. falciparum proliferation in infected human blood cells (SYBR Green); assay type: cell-based, Plasmodium falciparum; conditions: Plasmodium falciparum, Erythrocyte, 72 h, NF54 or 3D7 infected human erythrocytes, 72 hours; read-out: EC50 (nM), inhibitory efficacy in delaying P. falciparum proliferation in infected human blood cells
EC50 less than 3000 nM is MET; EC50 greater than or equal to 3000 nM is NOT MET.

{"columns": ["compound", "classification"],
 "data": [
  ["Cc1ccc(-c2cnc3cnc(C(=O)N(C)c4ccc(F)c(F)c4)cn23)cc1 [Compound 135]", "MET"],
  ["CN(C(=O)c1cn2c(-c3ccc(C(F)(F)F)cc3)cnc2cn1)c1ncccc1F [Compound 221]", "NOT MET"],
  ["COc1cc(F)ccc1N(C)C(=O)c1cn2c(-c3ccc(C(F)(F)F)cc3)cnc2cn1 [Compound 430]", "MET"],
  ["CC(=O)Nc1ccc(-c2cnc3cnc(CN(C)c4ccc(C#N)cc4)cn23)cn1 [Compound 226]", "MET"],
  ["CC(C)c1ccc(-c2cnc3cnc(C(=O)N(C)c4ccc(C#N)cc4)cn23)cc1 [Compound 115]", "MET"],
  ["CN(C(=O)c1cn2c(-c3ccc(C(F)(F)F)cc3)cnc2cn1)c1ccc(F)cc1F [Compound 23]", "MET"],
  ["Cc1ccncc1N(C)C(=O)c1cn2c(-c3ccc(C(F)(F)F)cc3)cnc2cn1 [Compound 309]", "MET"],
  ["CON(C)C(=O)c1ccc(-c2cnc3cnc(C(=O)N(C)c4ccc(C#N)cc4)cn23)cc1 [Compound 185]", "NOT MET"],
  ["Cc1cccnc1N(C)C(=O)c1cn2c(-c3ccc(C(F)(F)F)cc3)cnc2cn1 [Compound 390]", "MET"],
  ["CN(C(=O)c1ccc(C(F)(F)F)nc1)c1cn2c(-c3ccc(C(F)(F)F)cc3)cnc2cn1 [Compound 308]", "MET"],
  ["CN(Cc1cn2c(-c3ccc(Cl)cc3)cnc2cn1)c1ccc(F)cc1 [Compound 18]", "MET"],
  ["CN(C(=O)c1cn2c(-c3ccc4cnccc4c3)cnc2cn1)c1ccc(C#N)cc1 [Compound 167]", "NOT MET"],
  ["CN(C(=O)c1cn2c(-c3ccc(C(F)(F)F)cc3)cnc2cn1)c1ccc(-c2ccccc2)nc1 [Compound 499]", "NOT MET"],
  ["CN(C(=O)c1cn2c(-c3ccc(-c4ccn[nH]4)cc3)cnc2cn1)c1ccc(S(C)(=O)=O)cc1 [Compound 131]", "MET"],
  ["CN(C(=O)c1cn2c(-c3ccc(-c4ccnn4C)cc3)cnc2cn1)c1ccc(C#N)cc1 [Compound 208]", "MET"]
]}
